target_entity: p70 (NAMPT) (Homo sapiens)
Construct: endogenous in cells; host or cells: H2122 lung cancer cells
Sequence (P43490 whole entry): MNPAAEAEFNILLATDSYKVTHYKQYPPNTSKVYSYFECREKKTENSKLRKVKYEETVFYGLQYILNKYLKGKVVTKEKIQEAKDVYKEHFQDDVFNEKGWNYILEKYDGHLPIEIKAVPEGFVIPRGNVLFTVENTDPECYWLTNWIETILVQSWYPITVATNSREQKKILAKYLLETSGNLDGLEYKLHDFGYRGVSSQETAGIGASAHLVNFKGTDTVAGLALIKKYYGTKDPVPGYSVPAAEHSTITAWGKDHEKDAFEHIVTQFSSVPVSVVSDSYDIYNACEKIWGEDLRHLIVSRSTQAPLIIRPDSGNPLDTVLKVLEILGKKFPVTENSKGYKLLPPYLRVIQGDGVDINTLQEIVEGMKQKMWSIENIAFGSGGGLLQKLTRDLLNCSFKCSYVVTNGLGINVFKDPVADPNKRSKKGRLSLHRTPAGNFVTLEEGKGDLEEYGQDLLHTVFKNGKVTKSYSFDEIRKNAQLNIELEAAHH
protocol_description: binding competition for photo-crosslinking of P7C3-S326 to p70 in H2122 cells
test_conditions: 0.3 μM P7C3-S326 plus 5 μM competitor, p70 band intensity, P7C3-S326 alone compared with plus competitor, vehicle 1.0
As shown below, each of these compounds has a reported Binding competition value.
readout_name: Binding competition

INSERT INTO assay_data (compound, target_entity, readout_name, numeric_readout) VALUES
  ('OC(CNC1CCCC1)Cn1c2ccc(Br)cc2c2cc(Br)ccc21 (stereo not drawn)', 'p70 (NAMPT) (Homo sapiens)', 'Binding competition', 4.1),
  ('NC(COc1ccccc1)Cn1c2ccc(Br)cc2c2cc(Br)ccc21 (stereo not drawn)', 'p70 (NAMPT) (Homo sapiens)', 'Binding competition', 2.0),
  ('C#CCN(C)[C@H](C)Cc1ccccc1 [S117, Selegiline, reference compound]', 'p70 (NAMPT) (Homo sapiens)', 'Binding competition', 1.0),
  ('CNC(=O)Cn1c2ccc(Br)cc2c2cc(Br)ccc21', 'p70 (NAMPT) (Homo sapiens)', 'Binding competition', 1.7),
  ('Brc1ccc2c(c1)c1cc(Br)ccc1n2CCCNc1ccccc1', 'p70 (NAMPT) (Homo sapiens)', 'Binding competition', 2.8),
  ('COc1cccc(NCC(O)CN2c3ccccc3CCc3ccccc32)c1 (stereo not drawn)', 'p70 (NAMPT) (Homo sapiens)', 'Binding competition', 1.3),
  ('N#CCn1c2ccc(Br)cc2c2cc(Br)ccc21', 'p70 (NAMPT) (Homo sapiens)', 'Binding competition', 1.8),
  ('COc1cccc(NC(SC)C(=O)Cn2c3ccc(Br)cc3c3cc(Br)ccc32)c1 (stereo not drawn)', 'p70 (NAMPT) (Homo sapiens)', 'Binding competition', 1.4),
  ('O[C@H](COc1ccccc1)Cn1c2ccc(Br)cc2c2cc(Br)ccc21', 'p70 (NAMPT) (Homo sapiens)', 'Binding competition', 3.4),
  ('OC(CNc1ccccc1)Cn1c2ccc(I)cc2c2cc(I)ccc21 (stereo not drawn)', 'p70 (NAMPT) (Homo sapiens)', 'Binding competition', 1.5),
  ('O=S(=O)(CC(F)Cn1c2ccc(Br)cc2c2cc(Br)ccc21)c1ccccc1 (stereo not drawn)', 'p70 (NAMPT) (Homo sapiens)', 'Binding competition', 1.4),
  ('Cc1ccc2[nH]c3ccc(Br)cc3c2c1', 'p70 (NAMPT) (Homo sapiens)', 'Binding competition', 2.0),
  ('CN(C)CCCN1c2ccccc2Sc2ccc(Cl)cc21 [S121, CPZ, reference compound]', 'p70 (NAMPT) (Homo sapiens)', 'Binding competition', 2.3),
  ('COc1ccc2[nH]c3ccc(Br)cc3c2c1', 'p70 (NAMPT) (Homo sapiens)', 'Binding competition', 3.7),
  ('OC(COc1ccccc1)Cn1c2ccc(Br)cc2c2cc(Br)ccc21 (stereo not drawn)', 'p70 (NAMPT) (Homo sapiens)', 'Binding competition', 2.6);

* * *

System: hippocampal neurogenesis (Dentate Gyrus)
protocol_description: in vivo neurogenesis assay (BrdU+ cells in dentate gyrus)
Parameters: species or system mice
test_conditions: living mice; vehicle (DMSO) 7.3
Entries and their Neurogenesis # BrdU+ Cells (X10E06)/mm3 Dentate Gyrus values follow.
readout_name: Neurogenesis # BrdU+ Cells (X10E06)/mm3 Dentate Gyrus

INSERT INTO assay_data (molecule, result) VALUES
  ('COc1c(Br)ccc2c1c1cc(Br)ccc1n2CC(O)CNc1ccccc1 (stereo not shown)', '14.6 (X10E06)/mm3'),
  ('CNCCCN1c2ccccc2CCc2ccccc21.Cl [S87, Desipramine, reference compound]', '14.7 (X10E06)/mm3'),
  ('Cc1ccc2[nH]c3ccc(Br)cc3c2c1', '20.2 (X10E06)/mm3'),
  ('CN1CCN2c3ncccc3Cc3ccccc3C2C1 (stereo not shown) [S126, Remeron, reference compound]', '8.8 (X10E06)/mm3'),
  ('CCOc1cccc(NCC(O)Cn2c3ccc(Br)cc3c3cc(Br)ccc32)c1 (stereo not shown)', '8.0 (X10E06)/mm3'),
  ('COc1cccc(N(CC(O)Cn2c3ccc(Br)cc3c3cc(Br)ccc32)C(C)=O)c1 (stereo not shown)', '11.9 (X10E06)/mm3'),
  ('[O-][S+](CC(O)Cn1c2ccc(Br)cc2c2cc(Br)ccc21)c1ccccc1 (stereo not shown)', '8.1 (X10E06)/mm3'),
  ('COc1cccc(NCC(F)Cn2c3ccc(Br)cc3c3cc(Br)ccc32)c1 (stereo not shown)', '19.0 (X10E06)/mm3'),
  ('O=C(COc1cccc(SCC(O)Cn2c3ccc(Br)cc3c3cc(Br)ccc32)c1)NCc1ccccc1 (stereo not shown)', '6.9 (X10E06)/mm3'),
  ('Cl.NCC(F)Cn1c2ccc(Br)cc2c2cc(Br)ccc21 (stereo not shown)', '12.3 (X10E06)/mm3'),
  ('COc1cccc(N2CC(Cn3c4ccc(Br)cc4c4cc(Br)ccc43)OC2=O)c1 (stereo not shown)', '10.8 (X10E06)/mm3'),
  ('CC(C)(C)OC(=O)NCC(F)Cn1c2ccc(Br)cc2c2cc(Br)ccc21 (stereo not shown)', '13.5 (X10E06)/mm3'),
  ('COc1cccc(NCC(F)(F)Cn2c3ccc(Br)cc3c3cc(Br)ccc32)c1', '10.7 (X10E06)/mm3'),
  ('COc1cccc(NC[C@@H](O)Cn2c3ccc(Br)cc3c3cc(Br)ccc32)c1', '14.9 (X10E06)/mm3'),
  ('CNCC(O)CN1c2ccccc2CCc2ccccc21 (stereo not shown)', '7.3 (X10E06)/mm3'),
  ('O=S(=O)(CC(O)Cn1c2ccc(Br)cc2c2cc(Br)ccc21)c1ccc(O)cc1 (stereo not shown)', '8.5 (X10E06)/mm3'),
  ('CC(C(N)=O)n1c2ccc(Br)cc2c2cc(Br)ccc21 (stereo not shown)', '10.5 (X10E06)/mm3'),
  ('COc1cccc(NCC(O)Cn2c3ccc(C)cc3c3cc(C)ccc32)c1 (stereo not shown)', '8.1 (X10E06)/mm3'),
  ('CCOC(=O)C1=C[C@]2(CC)CCCN3CCc4c(n1c1ccccc41)[C@@H]32', '13.3 (X10E06)/mm3'),
  ('O=C(COc1cccc(S(=O)(=O)CC(O)Cn2c3ccc(Br)cc3c3cc(Br)ccc32)c1)NCc1ccccc1 (stereo not shown)', '8.9 (X10E06)/mm3'),
  ('Brc1ccc2c(c1)c1cc(Br)ccc1n2Cc1nnn[nH]1', '7.3 (X10E06)/mm3'),
  ('OC(COc1ccccc1)Cn1c2ccc(Br)cc2c2ncccc21 (stereo not shown)', '8.1 (X10E06)/mm3'),
  ('OC(COc1ccccc1)CN1c2ccccc2CCc2ccccc21 (stereo not shown)', '7.1 (X10E06)/mm3'),
  ('OC(CCn1c2ccc(Br)cc2c2cc(Br)ccc21)CNc1ccccc1 (stereo not shown)', '7.5 (X10E06)/mm3'),
  ('COc1ccc(SCC(F)Cn2c3ccc(Br)cc3c3cc(Br)ccc32)cc1 (stereo not shown)', '13.0 (X10E06)/mm3');

Just for reference, patent US9243281B2 is where these values come from.
